- target-or-test-system: VP1 capsid protein on BKV pseudovirions of genotype Ia (BK-D; JF894228) (BK virus genotype Ia (BK-D))
- assay-comment: cell-based or functional assay
Reported Neutralization PSV IC50 by item:
metric-name: Neutralization PSV IC50 (µg/mL)

INSERT INTO results (binder, qualifier_operator, reported_value) VALUES
  ('antibody B2P8 (antibody, V domains shown) VH: QVQLQESGPGLVKPSETLSLTCTVSGGSIRNSYWSWIRQPPGKGLEWIGYIYYTGTTNSNPSLKSRVTISVHMSQNQISLKLNSVTPADTAVYYCAQGGGSGDLHYWGQGTLVTVSS VL: EIVLTQSPDTLSLSPGARATLSCRASQSVRSNYLAWYQQKPGQAPRLLIYGASSRATAIPDRFSGSGSGTDFTLTITRLEPEDFAVYYCHQYASSPRTFGQGTKVEIK', '>', 50),
  ('antibody G6P7 (antibody, V domains shown) VH: QVQLQESGPGLVRPSETLSLTCTVSGGSISPYYWNWIRQPPGKGLEWIGYIYYSGNTKYNPSLKSRVTISVDTSKNQFSLKLSSVSAADTAVYYCARDSCSGTCYLGDNWFDPWGQGTLVTVSS VL: QSVLTQPPPVSGAPGQRVTISCTGSSSNIGANNDVHWYQHLPGTAPKLLIYGNNHRPSGVPDRFSGSKSGTSASLAITGLQAEDEADYYCQSYDSSLSTSKVFGGGTKLTVL', '=', 0.0038),
  ('antibody B3P3 (antibody, V domains shown) VH: EVQLVESGGGVVQPGRSLRLSCVTSGFTFESYGIHWVRQAPGKGLEWVAVISNDGSIEDYAGSVKGRFTISGDKAKNTVYLQVNSLRPDDTAVYYCAKDAVGITGGSLYYSYGMDVWGQGTTVTVSS VL: DIQMTQSPSPLSAFIGGRVTITCRASQTIKNYLNWYQQKPGEAPKLLIYTASTLQNGVPSRFSGSRSGTDFTLTITSLQPEDFATYYCQQSYSAPYSFGQGTKLEIK', '>', 50),
  ('antibody G5P1 (antibody, V domains shown) VH: QVQLQESGPGLVKPSGTLSLTCTVSGGSIRNSYWSWIRQPPGKGLEWIGYIYYTGTTNSNPSLKSRVTISVHMSRNQISLKLNSVTPADTAVYYCAQGGGSGDLHYWGQGTLVTVSS VL: NFMLTQPASVSGSPGQSITISCTGTRSDVGGYNYVSWYQQHPGKAPKLMIYDISSRPSGVSNRFSASKSGNTASLTISGLQAEDEADYYCISFATGYTWVFGGGTRLTVL', '=', 0.538),
  ('antibody E8P5 (antibody, V domains shown) VH: EVQLVESGGGLVHPGGSLRLSCAASGFRFGTYSMNWVRQAPGKGLEWVSHISSGSSSIYYADSVKGRFTISRDSVKNSLYLQMNNLRAEDTAVYFCARGWTGYDAFDIWGQGTMVTVSS VL: DIQMTQSPSSLSASVGDRVTITCRASQVISNYLAWYQEKPGEVPKLLIYAASTLQSGVPSRFSGSGTGTDFTLTISSLQPEDVATYYCQKYNNAPLTFGGGTKVEIK', '=', 0.0013),
  ('antibody F3P7 (antibody, V domains shown) VH: QVQLVQSGAEVKKPGASVKVSCKVSGYTFTSYSMHWLRQAPGQRLEWMGWINAGNGDTKYSQKFQGRITISRDTSARTTYMELSSLRSEDTAVFYCARSNSPTVTYNYYYYAMDVWGQGTTVTVSS VL: EIVLTQSPGTLSLSPGERATLSCRASQSVRSSYLAWYQQQAGQAPRLLIYDASSRATGIPDRFSGSGSGTDFSLTISRLDPEDFAVYYCQQYGNSPLTFGGGTKVEIK', '>', 50),
  ('antibody B9P6 (antibody, V domains shown) VH: EVQLVESGGGLVQPGGSLRLSCAASGFTFRSYTMDWVRQAPGKGLEWVSCISGSSNHKYYADSVRGRFTISRDNAKNSLFLQMNSLRAEDSAVYYCAREDDILTPLYGMDVWGPGTTVTVSS VL: EIVLTQSPDTLSLSPGARATLSCRASQSVRSNYLAWYQQKPGQAPRLLIYGASSRATAIPDRFSGSGSGTDFTLTITRLEPEDFAVYYCHQYGSSPRTFGQGTKVEIK', '=', 0.0371);
